Tested on: CAKI-1
Experiment: Compound was evaluated for cytotoxicity against CAKI-1(renal) cell line
Format: functional, cell-based
Conditions: Homo sapiens
Parameter measured: pIC50
For clarity, pIC50 is expressed as the negative log10 of concentration in mol/L.

Which pIC50 reading was recorded for the compound Nc1nc(F)nc2c1ncn2[C@@H]1S[C@H](CO)[C@@H](O)[C@@H]1O ?
5.00

Which pIC50 reading was recorded for the compound Nc1nc(F)nc2c1ncn2[C@H]1S[C@H](CO)[C@@H](O)[C@@H]1O ?
4.70

Which pIC50 reading was recorded for the compound Nc1nc(N)c2ncn(C3SC(CO)C(O)C3O)c2n1 (centres undefined) ?
4.70

Which pIC50 reading was recorded for the compound Nc1nc(O)c2ncn(C3SC(CO)C(O)C3O)c2n1 (centres undefined) ?
4.85

----------
Kindly state pIC50 for each of the entries shown.
System: SK-MEL-28
Test: Compound was evaluated for cytotoxicity against SK-MEL-28 (melanoma) cell line
Type: functional, cell-based
Details: Homo sapiens
For clarity, pIC50 is expressed as the negative log10 of concentration in mol/L.

Param readout= pIC50; system= SK-MEL-28; entry= Nc1nc(N)c2ncn(C3SC(CO)C(O)C3O)c2n1 (centres undefined) ; returns value.
6.47

Param readout= pIC50; system= SK-MEL-28; entry= Nc1nc(O)c2ncn(C3SC(CO)C(O)C3O)c2n1 (centres undefined) ; returns value.
5.96

----------
Test system: DLD-1
Assay: Compound was evaluated for cytotoxicity against DLD-1(colon) cell line
Assay type: functional, cell-based
Conditions: Homo sapiens
Parameter measured: IC50

Which IC50 reading was recorded for the compound Nc1nc(O)c2ncn(C3SC(CO)C(O)C3O)c2n1 (centres undefined) ?
> 20 µM

Which IC50 reading was recorded for the compound Nc1nc(F)nc2c1ncn2[C@H]1S[C@H](CO)[C@@H](O)[C@@H]1O ?
> 100 µM

Which IC50 reading was recorded for the compound Nc1nc(N)c2ncn(C3SC(CO)C(O)C3O)c2n1 (centres undefined) ?
> 25 µM

Which IC50 reading was recorded for the compound Nc1nc(F)nc2c1ncn2[C@@H]1S[C@H](CO)[C@@H](O)[C@@H]1O ?
> 90 µM
